Reference source for all entries: paper PMC4982073

molecular target: RosA (N,N-8-demethyl-8-amino-D-riboflavin dimethyltransferase) (Streptomyces davaonensis); construct: full length, hexahistidine-tagged (pET24a(+)rosA-His6, pFJ02), tag kept, E. coli Rosetta 2 (DE3); 353 amino acids; subunit 38 kDa, native 77 kDa, homodimer; test: initial rates of RoF formation at […] nm, Henderson plot (tight-binding inhibition)
Sequence (K4RFM2 whole entry): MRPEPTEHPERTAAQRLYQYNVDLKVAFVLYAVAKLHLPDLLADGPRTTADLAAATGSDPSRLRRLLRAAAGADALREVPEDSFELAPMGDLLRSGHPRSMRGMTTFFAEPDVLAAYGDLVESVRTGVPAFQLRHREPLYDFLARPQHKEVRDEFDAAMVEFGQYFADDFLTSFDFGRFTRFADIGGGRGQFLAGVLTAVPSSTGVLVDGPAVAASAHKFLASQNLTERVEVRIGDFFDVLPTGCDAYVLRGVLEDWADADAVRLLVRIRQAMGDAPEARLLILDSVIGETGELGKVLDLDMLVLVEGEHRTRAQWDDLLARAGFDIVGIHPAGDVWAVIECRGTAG
pKi: −log10 of the molar value.
MEASURED_PARAMETER: pKi

I: Nc1ncnc2c1ncn2[C@@H]1O[C@H](CSCC[C@H](N)C(=O)O)[C@@H](O)[C@H]1O
II: Cc1cc2nc3c(=O)[nH]c(=O)nc-3n(C[C@H](O)[C@H](O)[C@H](O)CO)c2cc1N(C)C
Hi there, can you help? I need to know whether I or II has lower measured pKi. API: response body contains the label of the selected item.
II
(II: 4.57, I: 5.15)

---

target: RosA (N,N-8-demethyl-8-amino-D-riboflavin dimethyltransferase) (Streptomyces davaonensis); construct: full length, hexahistidine-tagged (pET24a(+)rosA-His6, pFJ02), tag kept, E. coli Rosetta 2 (DE3); 353 amino acids; subunit 38 kDa, native 77 kDa, homodimer; experiment: isothermal titration calorimetry; assay type: binding; conditions: read-out: RoF
MEASURED_PARAMETER: Kd (nM)
Respond with the bare value in nM.

Find the recorded Kd belonging to Cc1cc2nc3c(=O)[nH]c(=O)nc-3n(C[C@H](O)[C@H](O)[C@H](O)CO)c2cc1N(C)C and report it.
800
